# test-protocol: Selectivity index, ratio of CC50 for rat L6 cells to EC50 for Trypanosoma brucei 221 bloodstream form
# Type: toxicity
# experimental-conditions: read-out: Ratio CC50/EC50
condition met means recorded selectivity ratio is 300 or above; condition not met means it is below 300.

Recorded results for 2 compounds are shown here.
compound	assigned-label
O=C(CN1C(=O)N(Cc2ccccc2)C2(CCCCc3ccccc32)C1=O)NO (centres undefined)	condition met
CN1C(=O)N(CC(=O)NO)C(=O)C12CCCc1ccccc12 (centres undefined)	condition not met

**Query** I'd appreciate it if you could say whether O=C(CN1C(=O)NC2(CCCc3ccccc32)C1=O)NO (centres undefined) has selectivity ratio at least equal to 300.
**Result** condition met

**Query** I'd appreciate it if you could say whether O=C(CN1C(=O)N(Cc2ccccc2)C2(CCCc3ccccc32)C1=O)NO (centres undefined) has selectivity ratio at least equal to 300.
**Result** condition not met

**Query** I'd appreciate it if you could say whether O=C(CN1C(=O)N(Cc2ccccc2)C2(CCc3ccccc32)C1=O)NO (centres undefined) has selectivity ratio at least equal to 300.
**Result** condition not met

Entry source: ChEMBL document CHEMBL4373658
